# ASSAY_TARGET: HLA-B*46:01
# RUN_DESCRIPTION: IEDB peptide-MHC binding, purified MHC/competitive/fluorescence; filed as Kd, often an IC50 or EC50 that approximates it; bounds were set here for any values at or beyond the usual limits of such assays
# CONDITION_INFO: source organism: Giardia lamblia ATCC 50803
pKd: −log10 of the molar value.
PROPERTY: pKd

Query string: pKd lookup needed for ELLDHLLLF , thanks.
Result string: ≤ 4.70

Query string: pKd lookup needed for ITFHNQRDF , thanks.
Result string: ≤ 4.70

###

# ASSAY_TARGET: HLA-A*24:02
# RUN_DESCRIPTION: IEDB peptide-MHC binding, purified MHC/competitive/fluorescence; filed as Kd, often an IC50 or EC50 that approximates it; bounds were set here for any values at or beyond the usual limits of such assays
# CONDITION_INFO: source organism: Vibrio cholerae B33
pKd: −log10 of the molar value.
PROPERTY: pKd

Query string: pKd lookup needed for PYPYLFYKF , thanks.
Result string: ≥ 10.00

###

# ASSAY_TARGET: HLA-A*29:02
# RUN_DESCRIPTION: IEDB peptide-MHC binding, purified MHC/direct/fluorescence; filed as Kd, often an IC50 or EC50 that approximates it; bounds were set here for any values at or beyond the usual limits of such assays
# CONDITION_INFO: source organism: Ravn virus - Ravn, Kenya, 1987
PROPERTY: pKd
Quick note: pKd means taking -log10 of the concentration in moles per liter.

Query string: API: value(readout= pKd, system= HLA-A*29:02, query= NLFDWMHFL )
Result string: 5.62

###

# ASSAY_TARGET: HLA-B*08:01
# RUN_DESCRIPTION: IEDB peptide-MHC binding, purified MHC/competitive/fluorescence; filed as Kd, often an IC50 or EC50 that approximates it; bounds were set here for any values at or beyond the usual limits of such assays
# CONDITION_INFO: source organism: Pseudomonas aeruginosa UCBPP-PA14
pKd: −log10 of the molar value.
PROPERTY: pKd

Query string: pKd lookup needed for AVFDGCVVY , thanks.
Result string: ≤ 4.70

###

# ASSAY_TARGET: HLA-B*08:03
# RUN_DESCRIPTION: IEDB peptide-MHC binding, purified MHC/direct/fluorescence; filed as Kd, often an IC50 or EC50 that approximates it; bounds were set here for any values at or beyond the usual limits of such assays
# CONDITION_INFO: source organism: Mycobacterium tuberculosis C
pKd: −log10 of the molar value.
PROPERTY: pKd

Query string: pKd lookup needed for TIHLATAPK , thanks.
Result string: ≤ 4.70

###

# ASSAY_TARGET: HLA-A*31:01
# RUN_DESCRIPTION: IEDB peptide-MHC binding, purified MHC/direct/fluorescence; filed as Kd, often an IC50 or EC50 that approximates it; bounds were set here for any values at or beyond the usual limits of such assays
# CONDITION_INFO: source organism: Entamoeba histolytica HM-1:IMSS
PROPERTY: Kd (nM)
The response must be a number in nM with no trailing unit.

Query string: Kd lookup needed for KYWRQMIIK , thanks.
Result string: 24.9

###

# ASSAY_TARGET: HLA-A*01:01
# RUN_DESCRIPTION: IEDB peptide-MHC binding, purified MHC/direct/fluorescence; filed as Kd, often an IC50 or EC50 that approximates it; bounds were set here for any values at or beyond the usual limits of such assays
# CONDITION_INFO: source organism: Orthohantavirus negraense
PROPERTY: Kd (nM)
The response must be a number in nM with no trailing unit.

Query string: Kd lookup needed for FMSRKLHRY , thanks.
Result string: 9.5
